Each record here notes measured recombinant barcode read abundance (log10).
assay: recombinant barcode read abundance after kanamycin selection (control-corrected) (log10(CPM+1)); higher = more efficient recombination; sequences stand for … in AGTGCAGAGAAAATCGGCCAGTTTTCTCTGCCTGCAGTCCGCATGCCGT…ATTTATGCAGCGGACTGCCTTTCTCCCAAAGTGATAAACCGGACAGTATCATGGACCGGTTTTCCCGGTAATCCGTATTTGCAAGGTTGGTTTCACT; site = the 11-nt target
Reply: number alone, nothing else.

Sample records with recombinant barcode read abundance (log10):
> print(dat)
                                 seq.string  measurement
1  GAGTCCTCGTGGGTTCTAACCTGTTGCCTAG [GAGTCCTCTAG_LTGcore_CG_RTGcore_CT] (site GAGTCCTCTAG) (LTG core: CG, RTG core: CT)        0.274
2  TGTATTCCTTGGGTTCTAACCTGTTGCCTAA [TGTATTCCTAG_LTGcore_CT_RTGcore_TT] (site TGTATTCCTAG) (LTG core: CT, RTG core: TT)       0.0404
3  TCTACCCGGTGGGTTCTAACCTGTTGCTGAG [TCTACCCCTCA_LTGcore_GG_RTGcore_CT] (site TCTACCCCTCA) (LTG core: GG, RTG core: CT)       0.0172

# input I'd like to know its recombinant barcode read abundance (log10). The sequence in question is GGGCGGAGATGGGTTCTAACCTGTTGCGGAG [GGGCGGACTCC_LTGcore_GA_RTGcore_CT] (site GGGCGGACTCC) (LTG core: GA, RTG core: CT)
# output 0.539

# input Let us now turn to AAACAGTCTTGGGTTCTAACCTGTTGCCTAT [AAACAGTCTAG_LTGcore_CT_RTGcore_AT] (site AAACAGTCTAG) (LTG core: CT, RTG core: AT)
# output 1.32

# input What do you get for ATGCTTTCTTGGGTTCTAACCTGTTGCCTGT [ATGCTTTCTAG_LTGcore_CT_RTGcore_AC] (site ATGCTTTCTAG) (LTG core: CT, RTG core: AC) ?
# output 0.101

# input Same thing, different sequence: AGGCGGTTTTGGGTTCTAACCTGTTGCTTAA [AGGCGGTCTAA_LTGcore_TT_RTGcore_TT] (site AGGCGGTCTAA) (LTG core: TT, RTG core: TT)
# output 0.0993

# input Now consider GCGGGACGGTGGGTTCTAACCTGTTGCCTAG [GCGGGACCTAG_LTGcore_GG_RTGcore_CT] (site GCGGGACCTAG) (LTG core: GG, RTG core: CT) and answer again.
# output 0.14

# input Request: AAACACACATGGGTTCTAACCTGTTGCCTTG [AAACACACTAG_LTGcore_CA_RTGcore_CA] (site AAACACACTAG) (LTG core: CA, RTG core: CA)
# output 0.341

# input Try GCGCGACAATGGGTTCTAACCTGTTGCTTAG [GCGCGACCTAA_LTGcore_AA_RTGcore_CT] (site GCGCGACCTAA) (LTG core: AA, RTG core: CT) next.
# output 0

###

assay: recombinant UMI read abundance after kanamycin selection (control-corrected) (log10(CPM+1)); higher = more efficient recombination; extreme values may be limits of the assay; sequences stand for … in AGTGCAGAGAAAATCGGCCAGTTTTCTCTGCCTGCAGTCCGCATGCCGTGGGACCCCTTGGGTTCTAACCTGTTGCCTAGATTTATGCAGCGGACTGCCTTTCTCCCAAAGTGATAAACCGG…AGGTTGGTTTCACT; site = the 11-nt donor
List of recombinant UMI read abundance (log10) values.
Write no unit; give the number alone.

Some solved cases for reference:
> print(dat)
                                 seq.string                         reported.metric  measurement
1  CGTTTGGCATGGACCGGTTTTCCCGGTAATCCGTATTTGTT (site CGTTTGGCTAG)  recombinant UMI read abundance (log10)        0.989
2  TGCAAGGCATGGACCGGTTTTCCCGGTAATCCGTATTTGGT (site TGCTAGGCTAC)  recombinant UMI read abundance (log10)       0.0166
3  CGGACACCATGGACCGGTTTTCCCGGTAATCCGTATTTGCT (site CGGACATCTAG)  recombinant UMI read abundance (log10)            0
4  GACAAACCATGGACCGGTTTTCCCGGTAATCCGTATTTGGC (site GACAAACCTCC)  recombinant UMI read abundance (log10)            0
5  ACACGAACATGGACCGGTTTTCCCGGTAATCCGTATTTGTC (site ACACAAACTGA)  recombinant UMI read abundance (log10)          1.4
6  ACGTCATCATGGACCGGTTTTCCCGGTAATCCGTATTTGTT (site ACGTCATCTAA)  recombinant UMI read abundance (log10)         1.69
7  GTTCGAGCATGGACCGGTTTTCCCGGTAATCCGTATTTGCC (site GTTCGAGCTTG)  recombinant UMI read abundance (log10)        0.317
8  CGGTGTCCATGGACCGGTTTTCCCGGTAATCCGTATTTGTT (site CGGTGTCCTAA)  recombinant UMI read abundance (log10)       0.0166

Next:
# input Could you tell me which recombinant UMI read abundance (log10) is on file for TAAGGTCCATGGACCGGTTTTCCCGGTAATCCGTATTTGTA (site TAAAGTCCTTA) ?
# output 0.294

###

Reported recombinant UMI read abundance (log10) values follow for various sequences
assay: recombinant UMI read abundance after kanamycin selection (control-corrected) (log10(CPM+1)); higher = more efficient recombination; extreme values may be limits of the assay; sequences stand for … in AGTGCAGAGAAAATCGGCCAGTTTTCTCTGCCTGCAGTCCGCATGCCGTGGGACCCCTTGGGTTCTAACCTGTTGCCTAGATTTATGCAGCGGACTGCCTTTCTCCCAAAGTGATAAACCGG…AGGTTGGTTTCACT; site = the 11-nt donor
Quick one: just the number, no unit, thanks!

As a guide, the following entries are already answered.
> print(dat)
                                 seq.string                         reported.metric  measurement
1  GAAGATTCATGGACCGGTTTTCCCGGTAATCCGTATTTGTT (site GAAGATTCTCA)  recombinant UMI read abundance (log10)        0.868
2  CCACCCTCATGGACCGGTTTTCCCGGTAATCCGTATTTGCT (site CCACCCTCTAG)  recombinant UMI read abundance (log10)         1.95
3  CAGGGCACATGGACCGGTTTTCCCGGTAATCCGTATTTGGA (site CAGGGCACTTC)  recombinant UMI read abundance (log10)        0.471

# input Can you look up the measured recombinant UMI read abundance (log10) of CTCATTCCATGGACCGGTTTTCCCGGTAATCCGTATTTGCT (site CTCATTCCTAG) for me?
# output 0.523

# input What do you have for CGGAAACCATGGACCGGTTTTCCCGGTAATCCGTATTTGTT (site CGGAAGCCTAA) ?
# output 0.00793

# input // next record TCCACCGCATGGACCGGTTTTCCCGGTAATCCGTATTTGTG (site TCCACCGCTCC)
# output 0.00628

# input Let us now turn to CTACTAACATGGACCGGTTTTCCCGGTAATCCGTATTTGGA (site CTACTTACTTC)
# output 0.176

# input Similarly, GTGCAAGCATGGACCGGTTTTCCCGGTAATCCGTATTTGGT (site GTGCAGGCTAC) ?
# output 0.602

# input Quick one: GATAGCACATGGACCGGTTTTCCCGGTAATCCGTATTTGCG (site GATAGCACTCG)
# output 0.578

# input Same again, this time with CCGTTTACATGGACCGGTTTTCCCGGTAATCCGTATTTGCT (site CCGTCTACTAG)
# output 0

# input Okay, and CTGGAACCATGGACCGGTTTTCCCGGTAATCCGTATTTGCA (site CTGGAAGCTTG) ?
# output 0.00806

# input // query: GACAAAGCATGGACCGGTTTTCCCGGTAATCCGTATTTGGT (site GACAAAGCTAC)
# output 1.13

# input Follow-up entry: CCAGTTTCATGGACCGGTTTTCCCGGTAATCCGTATTTGAC (site CTAGTATCTGT)
# output 0

# input And then TAGGAATCATGGACCGGTTTTCCCGGTAATCCGTATTTGGG (site TAGGAATCTCT) , what is it?
# output 0.56

# input Try the sequence GCTACTGCATGGACCGGTTTTCCCGGTAATCCGTATTTGCA (site GCTACTGCTAG)
# output 0

# input Then GTGAAACCATGGACCGGTTTTCCCGGTAATCCGTATTTGAT (site GTGAAACCTAT) ?
# output 0

# input How about CGAACATCATGGACCGGTTTTCCCGGTAATCCGTATTTGCT (site CGACCATCTAG) ?
# output 0.469

# input What about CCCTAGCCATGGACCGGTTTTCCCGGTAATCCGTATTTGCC (site GCCTAGCCTGG) ?
# output 0

# input Now give it for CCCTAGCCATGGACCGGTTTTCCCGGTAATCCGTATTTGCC (site CCCTAGCCTCG) too.
# output 0.00555
